Data origin, for the record: patent US20250171495A1

# pIC50 annotations
Assay Target: Factor Xa (Homo sapiens)
Construct: TMPRSS2; Matriptase; Hepsin; HGFA; Thrombin; Factor Xa
Sequence (P00742 235-488 limits assumed): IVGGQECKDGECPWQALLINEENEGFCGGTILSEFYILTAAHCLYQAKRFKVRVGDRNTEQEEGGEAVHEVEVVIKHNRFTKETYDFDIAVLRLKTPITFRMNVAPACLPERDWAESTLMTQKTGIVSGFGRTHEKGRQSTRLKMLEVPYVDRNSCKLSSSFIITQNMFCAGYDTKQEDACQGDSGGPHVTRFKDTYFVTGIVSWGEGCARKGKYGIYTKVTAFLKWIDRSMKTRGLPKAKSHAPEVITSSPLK
Sequence (P00742 41-179 partner limits assumed): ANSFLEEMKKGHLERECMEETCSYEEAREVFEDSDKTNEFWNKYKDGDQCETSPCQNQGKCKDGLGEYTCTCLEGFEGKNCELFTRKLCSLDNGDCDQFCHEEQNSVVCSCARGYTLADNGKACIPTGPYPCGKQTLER
Protocol Summary: Fluorogenic assay, Factor Xa
Assay type: biochemical
Condition Parameters: read-out: Factor Xa IC50
Schema: pIC50 number; meaning minus log10 of the concentration expressed in molar units.

Lookup: Requested field: pIC50. Item: CC(=O)N[C@H]1Cc2ccc(cc2)Oc2cccc(c2)C[C@@H](C(=O)N[C@@H](CCCNC(=N)N)C(=O)c2nc3ccccc3s2)NC(=O)[C@H](CC(C)C)NC1=O [VD5064B]
Found: 6.02

Lookup: Requested field: pIC50. Item: CC(=O)N[C@H]1Cc2ccc(cc2)OC/C=C\CNC(=O)CC[C@@H](C(=O)N[C@@H](CCCNC(=N)N)C(=O)c2nc3ccccc3s2)NC(=O)[C@H](CC(C)C)NC1=O [VD4018]
Found: 4.91

Lookup: Requested field: pIC50. Item: CC(=O)N[C@@H](CCC(N)=O)C(=O)N[C@@H](Cc1ccccc1)C(=O)N[C@@H](CCCNC(=N)N)C(=O)c1nc2ccccc2s1 [MM3144]
Found: 8.35
